- targetSystem: intestinal alkaline phosphatase (Mus musculus)
- runDescription: mouse IAP inhibition by analogs – biochemical, luminescence, set 2, SAR follow-up (AID 588647)
- condition: purified mouse IAP, luminescent substrate read-out
Calls of active or inactive are those of the source. The rule behind the calls is not given here.
Write down one outcome, taken from active, inactive

Cc1ccc(NC(=O)CCNS(=O)(=O)c2ccc3[nH]c(=O)oc3c2)cc1C : active
O=C(CCNS(=O)(=O)c1ccc2[nH]c(=O)oc2c1)Nc1ccc2c(c1)OCO2 : active
CC(=NNC(=O)c1ccccc1OCCOc1ccccc1)c1ccccc1F : inactive
O=C(NCc1ccc2c(c1)OCO2)C1CCCN(S(=O)(=O)c2ccc3[nH]c(=O)oc3c2)C1 (stereo unspecified) : inactive
O=C(CCNS(=O)(=O)c1ccc2c(c1)CCC2)NCCc1ccc2c(c1)OCO2 : inactive
O=C(CCNS(=O)(=O)c1ccc2[nH]c(=O)oc2c1)NCc1ccc(Cl)cc1 : active
COc1ccc(C(=O)N/N=C/c2ccccc2F)cc1 : inactive
COc1ccc(NC(=O)CCNS(=O)(=O)c2ccc3c(c2)CCC3)cc1OC : inactive

[Q] Please let me know the test result on file for O=C(CCNS(=O)(=O)c1ccc2[nH]c(=O)oc2c1)NCc1ccccc1 .
[A] active

[Q] Give the logged outcome of this assay for the following compound: COc1ccc(CCNC(=O)CCCNS(=O)(=O)c2ccc3[nH]c(=O)oc3c2)cc1OC
[A] active

[Q] What classification did COc1cccc(/C=N/NC(=O)c2cc(O)c(O)c(O)c2)c1O end up with in this test?
[A] active

====

- targetSystem: intestinal alkaline phosphatase (Mus musculus)
- runDescription: mouse IAP inhibition by analogs – biochemical, luminescence, set 2, SAR follow-up (AID 588647)
- condition: purified mouse IAP, luminescent substrate read-out
Activity calls are given as the source filed them. No rule for the calls is given here.
Thanks in advance; please answer with one of these: active, inactive

Solved cases below.
O=C(CCNS(=O)(=O)c1ccc2[nH]c(=O)oc2c1)NCc1cccc(F)c1 : inactive
CC(C)c1ccc(NC(=O)CCNS(=O)(=O)c2ccc3c(c2)oc(=O)n3C)cc1 : inactive
CSc1cccc(NC(=O)CCNS(=O)(=O)c2ccc3c(c2)oc(=O)n3C)c1 : inactive
CN(C)c1ccc(CNC(=O)C2CCCN(S(=O)(=O)c3ccc4[nH]c(=O)oc4c3)C2)cc1 (stereo not given) : inactive

# evaluate next
[Q] Test call for this compound, please: O=C(N/N=C/c1ccc(Cl)c(Cl)c1)c1cc(O)c(O)c(O)c1
[A] active

====

- targetSystem: intestinal alkaline phosphatase (Mus musculus)
- runDescription: mouse IAP inhibition by analogs – biochemical, luminescence, set 2, SAR follow-up (AID 588647)
- condition: purified mouse IAP, luminescent substrate read-out
Calls of active or inactive are those of the source. How the calls were made is not given here.
Select the correct class. Options are active, inactive and nothing else.

Examples from the recorded data:
O=C(N/N=C/c1ccc(Br)cc1F)c1cc(O)ccc1O : inactive
O=C(N/N=C/c1ccc(F)c(Br)c1)c1cc(O)c(O)c(O)c1 : active
O=C(N/N=C/c1cccc(Cl)c1Cl)c1cc(O)c(O)c(O)c1 : active
O=C(CCS(=O)(=O)Nc1ccc2[nH]c(=O)oc2c1)NCc1cccc(Cl)c1 : active
O=C(CCNS(=O)(=O)c1ccc2[nH]c(=O)oc2c1)NCc1ccccc1F : inactive

[Q] Outcome logged for O=c1[nH]c2ccc(S(=O)(=O)Nc3ccc4c(c3)OCO4)cc2o1 in this assay:
[A] inactive

====

- targetSystem: intestinal alkaline phosphatase (Mus musculus)
- runDescription: mouse IAP inhibition by analogs – biochemical, luminescence, set 2, SAR follow-up (AID 588647)
- condition: purified mouse IAP, luminescent substrate read-out
Activity calls are given as the source filed them. How the calls were made is not given here.
Pick from active, inactive when you respond.

[Q] Fill in: this test's call for O=C(N/N=C/c1c(F)cccc1F)c1ccc(O)cc1 is ___
[A] inactive

[Q] What was the test verdict on CCc1ccc(NC(=O)CCNS(=O)(=O)c2ccc3c(c2)oc(=O)n3C)cc1 ?
[A] inactive

[Q] What outcome does the record of this test show for O=C(N/N=C/c1ccccc1F)c1ccc(O)cc1 ?
[A] inactive

[Q] Entry Cc1ccc(NC(=O)CCNS(=O)(=O)c2ccc3c(c2)oc(=O)n3C)cc1 : call = ?
[A] active

[Q] Call for entry Cc1cc(NC(=O)CCNS(=O)(=O)c2ccc3[nH]c(=O)oc3c2)ccc1Br :
[A] active

[Q] Look up the recorded call for Cc1ccc(NC(=O)CCNS(=O)(=O)c2ccc3c(c2)oc(=O)n3C)c(C)c1 in this test.
[A] inactive

[Q] Hey, what did the test say about Cc1ccc(C)c(NS(=O)(=O)c2ccc3[nH]c(=O)oc3c2)c1 ?
[A] inactive

====

- targetSystem: intestinal alkaline phosphatase (Mus musculus)
- runDescription: mouse IAP inhibition by analogs – biochemical, luminescence, set 2, SAR follow-up (AID 588647)
- condition: purified mouse IAP, luminescent substrate read-out
Activity calls are given as the source filed them. No rule for the calls is given here.
parameter: IC50

COc1ccc(CNC(=O)CCCNS(=O)(=O)c2ccc3[nH]c(=O)oc3c2)cc1OC : 78 µM

Next compound, IC50 to be filled in.
Data point: COc1ccc(NC(=O)CCNS(=O)(=O)c2ccc3ccccc3c2)cc1OC ; IC50 = > 100 µM (inactive)

====

- targetSystem: intestinal alkaline phosphatase (Mus musculus)
- runDescription: mouse IAP inhibition by analogs – biochemical, luminescence, set 2, SAR follow-up (AID 588647)
- condition: purified mouse IAP, luminescent substrate read-out
Activity calls are given as the source filed them. How the calls were made is not given here.
Hi! Could you answer with just one of these? t = active, f = inactive

Would you please look over these solved cases?
CC(C)(C)c1ccc(/C=N/NC(=O)c2cc(O)c(O)c(O)c2)cc1 : f
COc1ccc(CCNC(=O)CCCNS(=O)(=O)c2ccc3[nH]c(=O)oc3c2)cc1 : t
O=C(CCCNS(=O)(=O)c1ccc2[nH]c(=O)oc2c1)NCCc1ccc(O)cc1 : t
Cc1ccc(C)c(NC(=O)C2CCCN(S(=O)(=O)c3ccc4c(c3)oc(=O)n4C)C2)c1 (stereo not given) : f
O=C(N/N=C/c1ccccc1F)c1ccccc1OCc1ccccc1 : f
O=C(CCCNS(=O)(=O)c1ccc2[nH]c(=O)oc2c1)NCc1ccc2c(c1)OCO2 : t
N#Cc1ccc(NS(=O)(=O)c2ccc3[nH]c(=O)oc3c2)cc1 : f
O=C(N/N=C/c1c(F)cccc1Cl)c1cc(O)c(O)c(O)c1 : t

[Q] Which outcome was assigned to O=C(N/N=C/c1ccccc1Cl)c1cc(O)c(O)c(O)c1 in this test?
[A] t

[Q] Record lookup: outcome of this test for CC(C)c1ccc(/C=N/NC(=O)c2cc(O)c(O)c(O)c2)cc1 ?
[A] t

====

- targetSystem: intestinal alkaline phosphatase (Mus musculus)
- runDescription: mouse IAP inhibition by analogs – biochemical, luminescence, set 2, SAR follow-up (AID 588647)
- condition: purified mouse IAP, luminescent substrate read-out
The source made the active and inactive calls. No rule for the calls is given here.
Response enum: active, inactive

See these solved cases before continuing.
COc1ccccc1CNC(=O)CCNS(=O)(=O)c1ccc2[nH]c(=O)oc2c1 : inactive
COc1cccc(C(=O)N/N=C/c2ccccc2F)c1 : inactive
O=C(N/N=C/c1cc(Br)ccc1F)c1ccc(O)cc1 : inactive
COc1cccc(NC(=O)CCNS(=O)(=O)c2ccc3c(c2)oc(=O)n3C)c1 : inactive
O=C(CCNS(=O)(=O)c1ccc2[nH]c(=O)oc2c1)NCc1ccc(F)cc1 : inactive

[Q] Hi, sorry to bother you, what did the test record for N#Cc1cccc(CNC(=O)CCNS(=O)(=O)c2ccc3[nH]c(=O)oc3c2)c1 ?
[A] active

[Q] What did this assay record as the result for CSc1cccc(NC(=O)C2CCCN(S(=O)(=O)c3ccc4c(c3)oc(=O)n4C)C2)c1 (stereo unspecified) ?
[A] inactive

[Q] What classification did COc1ccc(NS(=O)(=O)c2ccc3[nH]c(=O)oc3c2)cc1OC end up with in this test?
[A] inactive

====

- targetSystem: intestinal alkaline phosphatase (Mus musculus)
- runDescription: mouse IAP inhibition by analogs – biochemical, luminescence, set 2, SAR follow-up (AID 588647)
- condition: purified mouse IAP, luminescent substrate read-out
The source made the active and inactive calls. How the calls were made is not given here.
Assign a class; possible classes are active, inactive

Cc1ccc(C)c(CNC(=O)C2CCCN(S(=O)(=O)c3ccc4[nH]c(=O)oc4c3)C2)c1 (stereo not given) : inactive

[Q] I'd appreciate the recorded outcome for COc1ccc(CNC(=O)C2CCCN(S(=O)(=O)c3ccc4[nH]c(=O)oc4c3)C2)cc1 (stereo not given) from this test.
[A] inactive

====

- targetSystem: intestinal alkaline phosphatase (Mus musculus)
- runDescription: mouse IAP inhibition by analogs – biochemical, luminescence, set 2, SAR follow-up (AID 588647)
- condition: purified mouse IAP, luminescent substrate read-out
Calls of active or inactive are those of the source. The rule behind the calls is not given here.
Would you mind answering with one of these outcomes? T for active, F for inactive

[Q] Hi, sorry to bother you, what did the test record for O=C(N/N=C/c1c(F)cccc1Cl)c1ccc(O)cc1 ?
[A] F

[Q] Which outcome was assigned to O=C(N/N=C/c1c(F)cccc1Cl)c1ccc(O)cc1O in this test?
[A] F

[Q] Hello, I am checking results. What call was entered for COc1ccc(CNC(=O)CCNS(=O)(=O)c2ccc3ccccc3c2)c(OC)c1 ?
[A] F

[Q] Could you please tell me the result logged for COc1ccc(CNS(=O)(=O)c2ccc3[nH]c(=O)oc3c2)cc1 in this assay?
[A] T
